System: Jurkat
Type: cell-based
Details: read-out: Cell cytotoxicity IC50; Jurkat cells
Experimental readout: pIC50
Here pIC50 is given on a logarithmic scale as minus log10 of the concentration in mol/L.

Lab entry: Jurkat assay, molecule C/C=C(\C)C(=O)O[C@@H]1[C@@H](O)[C@@H]2O[C@H]3[C@H](O[C@@H](CCCCC)CCCCCCC(=O)CCC(=O)OC[C@@H](O2)[C@H]1OC(=O)/C=C/c1ccccc1)O[C@H](C)[C@H](OC(C)=O)[C@@H]3O , pIC50 = 8.21

###

Test system: U937
Format: cell-based
Conditions: read-out: Cell cytotoxicity IC50; U937 cells
Experimental readout: pIC50
Here pIC50 is given on a logarithmic scale as minus log10 of the concentration in mol/L.

Lab entry: U937 assay, molecule C/C=C(\C)C(=O)O[C@@H]1[C@@H](O)[C@@H]2O[C@H]3[C@H](O[C@@H](CCCCC)CCCCCCC(=O)CCC(=O)OC[C@@H](O2)[C@H]1OC(=O)/C=C/c1ccccc1)O[C@H](C)[C@H](OC(C)=O)[C@@H]3O , pIC50 = 8.27
